// provenance: the supplement of paper PMC10567573

B1: ZNF24 (parent)
chain: THTKEQILELVVLEQFVAILPKEL

Variants of: B1
Experiment: protein stability index of a GFP-peptide fusion (GPS, HEK-293T) (PSI 1-6); higher = more stable;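 note: lentivirally expressed fusions sorted by FACS into six bins by GFP to DsRed ratio, PSI derived from sequencing read proportions per bin multiplied by bin number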
Conditions: c terminus: a fixed tail appended
quantityMeasured: protein stability index

>>> result("Q6A")
2.33
>>> result("V12H")
1.8
>>> result("I19A")
1.98
>>> result("T3W")
3.42
>>> result("Q6N")
2.52
>>> result("T3V")
2
>>> result("E9Y")
3.52
>>> result("Q15G")
2.95
>>> result("T1F")
3.59
>>> result("L24H")
2.66
>>> result("Q6S")
2.96
>>> result("P21L")
2.44
>>> result("V12R")
1.94
>>> result("Q15P")
2.4
